- System: SF-268 CNS
- assay-details: NCI-60 one-dose screen, 48 h
- assay-context: 10 µM unless noted
About 83,000 compounds went through this panel and 20% of them were active in at least one assay; those are over-represented in the sample as a whole. The source made the active and inactive calls. How the source made its calls: active means growth percent below 10; inactive means the rest.
Your reply should match one of these outcome classes. active, inactive

Prompt: What did this assay record as the result for O=C(NCCO)C(F)(F)F ?
Completion: inactive

Prompt: What did this assay record as the result for CCCCn1c(Cc2ccc(OC)cc2)nc2cc(OC)c(OC)cc2c1=O ?
Completion: inactive

Prompt: What did this assay record as the result for Cc1nn(-c2ccccc2)c(N)c1N=C1NC(=O)/C(=C/c2ccc(Cl)cc2)S1 ?
Completion: inactive

Prompt: What did this assay record as the result for O=C(Nc1ccc(Cl)c(Cl)c1)O/N=C\c1c(Cl)ccc([N+](=O)[O-])c1Cl ?
Completion: active

Prompt: What did this assay record as the result for CCCCCSc1ccc2nc(NC(=O)OCC)sc2c1 ?
Completion: inactive

Prompt: What did this assay record as the result for Cc1ccc2c(c1)C(=O)CCS2 ?
Completion: inactive

Prompt: What did this assay record as the result for CC(=O)CC(=O)OC/C=C(/C)CCC=C(C)C ?
Completion: inactive

Prompt: What did this assay record as the result for CCOC(=O)C1=NN(c2ccccc2)C2=NC(=O)/C(=C\c3cn(-c4ccccc4)nc3-c3cc4ccccc4o3)C(=O)N12 ?
Completion: inactive

Prompt: What did this assay record as the result for COC(=O)c1ccc(C(=Nc2ccc(N(C)C(=O)CN3CCN(C)CC3)cc2)c2c(O)[nH]c3ccc(C(=O)OC)cc23)cc1 ?
Completion: inactive

Prompt: What did this assay record as the result for COc1cc(-c2nc(/C=C3/C(=O)Nc4ccccc43)c3ccccn23)cc(OC)c1OC ?
Completion: inactive

Prompt: What did this assay record as the result for COC(=O)[C@@H]1[C@H](O)[C@H](C)[C@H](O)[C@H](C)/C=C\C=C(C)C(=O)Nc2c(C)c(OC(C)=O)c3c(c2O)C(=O)C(C)=C2OCOC(=C23)C(C)=C[C@@](C)(O)[C@H](O)[C@@H](C)[C@H]1OC(C)=O ?
Completion: inactive

Prompt: What did this assay record as the result for Cc1ccc(C(=O)Nc2ccc(CN3CCN(C)CC3)c(C(F)(F)F)c2)cc1C#Cc1cnc(N)c2ccc(C#N)cc12 ?
Completion: inactive

Prompt: What did this assay record as the result for CCC(C)C1NC(=O)C(CCCCN)NC(=O)C(CCCCN)NC(=O)C(CC(C)C)NC(=O)C(CCCCN)NC(=O)C(C(C)CC)NC(=O)C(C(C)C)NC(=O)C(C(C)CC)NC(=O)C(CCCCN)NC(=O)C(CCCCN)NC(=O)C(C)NC(=O)C(CCCCN)NC(=O)C(CC(C)C)NC1=O (centres undefined) ?
Completion: inactive

Prompt: What did this assay record as the result for N#Cc1c(N)nc(Nc2nc3ccccc3[nH]2)nc1-c1ccc(Cl)cc1 ?
Completion: inactive
